Task for the reader: assign each of the following binders its reported log10 Ki.
biological target: T1, human MC4 receptor (human, UniProt P32245 1-332); assay: 125I-NDP-α-MSH displacement, BHK-human MC4 membranes (Assay V);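 further: Filter-retained radioactivity read by gamma counting, with affinity obtained through non-linear regression fitting of the binding curves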
T1 construct: whole, on cells; Assayed as membranes of BHK cells stably expressing the receptor; also called melanocortin receptor subtype 4; melanocortin receptor 4
T1 sequence (P32245 whole entry): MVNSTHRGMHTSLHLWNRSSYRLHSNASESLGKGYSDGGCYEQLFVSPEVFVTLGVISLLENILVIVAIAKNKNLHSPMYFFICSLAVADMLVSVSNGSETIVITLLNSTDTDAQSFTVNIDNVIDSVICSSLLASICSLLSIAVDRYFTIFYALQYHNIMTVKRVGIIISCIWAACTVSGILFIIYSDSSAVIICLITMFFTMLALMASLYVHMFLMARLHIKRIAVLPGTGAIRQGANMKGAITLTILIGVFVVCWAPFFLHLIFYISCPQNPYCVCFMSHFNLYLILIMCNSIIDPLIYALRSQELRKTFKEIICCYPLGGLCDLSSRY
Positions of bridges follow the written chain, without caps; N, C: chain ends. Non-standard residues stand in square brackets, D forms with d. Groups on a side chain read outwards from the residue. *: point of attachment. X6 = (2-(2-(17-carboxyheptadecanoylamino)ethoxy)ethoxy)acetyl, O=C(O)CCCCCCCCCCCCCCCCC(=O)NCCOCCOCC(=O)*; X3 = (2-(2-(15-carboxypentadecanoylamino)ethoxy)ethoxy)acetyl, O=C(O)CCCCCCCCCCCCCCC(=O)NCCOCCOCC(=O)*; biscarboxymethyl = Lys(biscarboxymethyl) = Nepsilon-bis(carboxymethyl)-L-lysine; bis(carboxymethyl) = Lys(biscarboxymethyl) = N6-bis(carboxymethyl)-L-lysine; Lys(CH2CO2H)2 = N[C@@H](CCCCN(CC(=O)O)CC(=O)O)C(=O)O; C18 diacid = O=C(O)CCCCCCCCCCCCCCCCC(=O)*; C17 diacid = O=C(O)CCCCCCCCCCCCCCCC(=O)*; C14 diacid = O=C(O)CCCCCCCCCCCCC(=O)*; NTA = O=C(O)CN(CC(=O)O)CC(=O)*; hCys = N[C@@H](CCS)C(=O)O; Orn = NCCC[C@H](N)C(=O)O; Dap = NC[C@H](N)C(=O)O; AEEA = NCCOCCOCC(=O)O
// stored as log10 of Ki expressed in nM

I'd like to know its log10 Ki. The binder in question is Ac-EH[dF]RW[Orn]PPRDK(biscarboxymethyl)K(X3)-NH2 (lactam 1-6) 0.76

Note, next up: Ac-[Orn]H[dF]RWDPPHEK(biscarboxymethyl)K(X6)-NH2 (lactam 1-6) 0.26

And then Ac-[Orn]H[dF]RWDPSSSK(bis(carboxymethyl))SSK([AEEA-C18 diacid])-NH2 (lactam 1-6) , what is it? -0.10

How about this binder: Ac-[hCys]H[dF]RWCPPKD[Dap](NTA)K([AEEA-C14 diacid])-NH2 (disulfide 1-6; SMILES CC(=O)N[C@H]1CCSSC[C@@H](C(=O)N2CCC[C@H]2C(=O)N2CCC[C@H]2C(=O)N[C@@H](CCCCN)C(=O)N[C@@H](CC(=O)O)C(=O)N[C@@H](CNC(=O)CN(CC(=O)O)CC(=O)O)C(=O)N[C@@H](CCCCNC(=O)COCCOCCNC(=O)CCCCCCCCCCCCC(=O)O)C(N)=O)NC(=O)[C@H](Cc2c[nH]c3ccccc23)NC(=O)[C@H](CCCNC(=N)N)NC(=O)[C@@H](Cc2ccccc2)NC(=O)[C@H](Cc2c[nH]cn2)NC1=O) 0.62

Next entry: Ac-EH[dF]RW[Orn]PPRDK(biscarboxymethyl)K(X6)-NH2 (lactam 1-6) -0.05

Another binder to look at: Ac-KH[dF]RWDPPHE[Lys(CH2CO2H)2]K([AEEA-C17 diacid])-NH2 (lactam 1-6; SMILES CC(=O)N[C@H]1CCCCNC(=O)C[C@@H](C(=O)N2CCC[C@H]2C(=O)N2CCC[C@H]2C(=O)N[C@@H](Cc2c[nH]cn2)C(=O)N[C@@H](CCC(=O)O)C(=O)N[C@@H](CCCCN(CC(=O)O)CC(=O)O)C(=O)N[C@@H](CCCCNC(=O)COCCOCCNC(=O)CCCCCCCCCCCCCCCC(=O)O)C(N)=O)NC(=O)[C@H](Cc2c[nH]c3ccccc23)NC(=O)[C@H](CCCNC(=N)N)NC(=O)[C@@H](Cc2ccccc2)NC(=O)[C@H](Cc2c[nH]cn2)NC1=O) 1.23
